Biological target: Prothrombin (Bos taurus) (UniProt P00735)
Assay: The compound was measured for inhibitory activity against bovine thrombin
metric: K obs / 1 (M⁻¹ s⁻¹)
Your answer is read as M⁻¹ s⁻¹, so omit the unit and give the number.

compound	K obs / 1, M⁻¹ s⁻¹
N=C(N)c1ccc(C(NC(=O)OCc2ccccc2)P(=O)(Oc2ccccc2)Oc2ccccc2)cc1 (centres undefined)	170

Sample N=C(N)c1ccc(C(NC(=O)[C@@H]2CCCN2C(=O)OCc2ccccc2)P(=O)(Oc2ccccc2)Oc2ccccc2)cc1 (some centres undefined) ; K obs / 1 observed: 70

The compound listed as N=C(N)c1ccc(C(NC(=O)[C@@H]2CCCN2C(=O)[C@@H](N)Cc2ccccc2)P(=O)(Oc2ccccc2)Oc2ccccc2)cc1 (some centres undefined) shows K obs / 1 equal to 730

The value of K obs / 1 measured for the compound CC(C)(C)OC(=O)N[C@@H](Cc1ccccc1)C(=O)N1CCC[C@H]1C(=O)NC(c1ccc(C(=N)N)cc1)P(=O)(Oc1ccccc1)Oc1ccccc1 (some centres undefined) turned out to be 12000

----------
Molecular target: Serine protease 1 (Bos taurus)
Test: The compound was measured for inhibitory activity against bovine trypsin
Hi! Could you tag entries with K obs / 1 below 100 M⁻¹ s⁻¹ as Met, and those at or above as Not met? Much appreciated.

# example entries with known answers
>>> print(df.to_string())
                                   compound  assignedcategory
0  N=C(N)c1ccc(C[C@H](NC(=O)[C@@H]2CCCN2C(=O)[C@@H](N)Cc2ccccc2)P(=O)(Oc2ccccc2)Oc2ccccc2)cc1               Met
1  N=C(N)c1ccc(C[C@H](NC(=O)OCc2ccccc2)P(=O)(Oc2ccccc2)Oc2ccccc2)cc1               Met
2  N=C(N)c1ccc(C(NC(=O)[C@@H]2CCCN2C(=O)[C@@H](N)Cc2ccccc2)P(=O)(Oc2ccccc2)Oc2ccccc2)cc1 (stereo partly drawn)           Not met
3  N=C(N)c1ccc(C[C@H](N)P(=O)(Oc2ccccc2)Oc2ccccc2)cc1               Met
4  CC(C)(C)OC(=O)N[C@@H](Cc1ccccc1)C(=O)N1CCC[C@H]1C(=O)N[C@@H](Cc1ccc(C(=N)N)cc1)P(=O)(Oc1ccccc1)Oc1ccccc1           Not met

[ask] # check: K obs / 1 < 100 M⁻¹ s⁻¹ for N=C(N)c1ccc(C(NC(=O)CNS(=O)(=O)c2ccc3ccccc3c2)P(=O)(Oc2ccccc2)Oc2ccccc2)cc1 (stereo not drawn)
[reply] Not met

[ask] Hi there! Is K obs / 1 for CC(C)(C)OC(=O)N[C@@H](Cc1ccccc1)C(=O)N1CCC[C@H]1C(=O)NC(c1ccc(C(=N)N)cc1)P(=O)(Oc1ccccc1)Oc1ccccc1 (stereo partly drawn) below 100 M⁻¹ s⁻¹, do you know?
[reply] Not met

----------
Molecular target: Prothrombin (Homo sapiens)
Test: The compound was measured for inhibitory activity against human thrombin
metric: K obs / 1 (M⁻¹ s⁻¹)
Give just the numeric value; M⁻¹ s⁻¹ need not be written.

compound	subjectOfTest	K obs / 1 [M⁻¹ s⁻¹]
N=C(N)c1ccc(C(NC(=O)[C@@H]2CCCN2C(=O)OCc2ccccc2)P(=O)(Oc2ccccc2)Oc2ccccc2)cc1 (some centres undefined)	Prothrombin (Homo sapiens)	20

Reported K obs / 1 for N=C(N)c1ccc(C(NC(=O)OCc2ccccc2)P(=O)(Oc2ccccc2)Oc2ccccc2)cc1 (centres undefined) was 80

K obs / 1 measured on CC(=O)N[C@H](Cc1ccccc1)C(=O)N1CCC[C@H]1C(=O)N[C@@H](CCCN=C(N)N)P(=O)(Oc1ccccc1)Oc1ccccc1 = 1200

Value of K obs / 1 reported for the compound CC(C)(C)OC(=O)N[C@@H](Cc1ccccc1)C(=O)N1CCC[C@H]1C(=O)N[C@@H](Cc1ccc(C(=N)N)cc1)P(=O)(Oc1ccccc1)Oc1ccccc1 is 0.7

Reported K obs / 1 for CC(C)(C)OC(=O)N[C@@H](Cc1ccccc1)C(=O)N1CCC[C@H]1C(=O)NC(c1ccc(C(=N)N)cc1)P(=O)(Oc1ccccc1)Oc1ccccc1 (some centres undefined) was 11000

// K obs / 1 value for N=C(N)c1ccc(C[C@H](NC(=O)OCc2ccccc2)P(=O)(Oc2ccccc2)Oc2ccccc2)cc1 : 0.2

The compound identified as N=C(N)c1ccc(C(NC(=O)[C@@H]2CCCN2C(=O)[C@@H](N)Cc2ccccc2)P(=O)(Oc2ccccc2)Oc2ccccc2)cc1 (some centres undefined) registered its K obs / 1 at 700

Briefly, K obs / 1 measured for N=C(N)c1ccc(C[C@H](N)P(=O)(Oc2ccccc2)Oc2ccccc2)cc1 : 2.2

Entry N=C(N)c1ccc(C[C@H](NC(=O)[C@@H]2CCCN2C(=O)[C@@H](N)Cc2ccccc2)P(=O)(Oc2ccccc2)Oc2ccccc2)cc1 ; K obs / 1 = 54
